- Study system: PIK3CD (Human)
- Protocol notes: Cell-Based Assay
- Experimental conditions: rat-1
Measurement label: IC50 (nM)

// solved cases for IC50 follow
smi=Cc1nc(N)nc(N2C[C@@H](O)C[C@H]2c2nc3cccc(OC(F)F)c3c(=O)n2-c2ccccc2)c1C#N measurement_label=IC50 recorded_value=45
smi=Nc1nc(N2C[C@@H](O)C[C@H]2c2nc3cccc(C(F)(F)F)c3c(=O)n2-c2ccccc2)c2nc[nH]c2n1 measurement_label=IC50 recorded_value=87
smi=Cc1nc(N)nc(N2C[C@@H](O)C[C@H]2c2nc3cccc(C(F)(F)F)c3c(=O)n2-c2cccc(F)c2)c1C#N measurement_label=IC50 recorded_value=16
smi=CC1(n2c([C@@H]3CCCN3c3ncnc(N)c3C#N)nc3cccc(Cl)c3c2=O)CC1 measurement_label=IC50 recorded_value=5
smi=N#Cc1c(N)ncnc1N1C[C@@H](O)C[C@H]1c1nc2ccc(F)c(F)c2c(=O)n1-c1ccccc1 measurement_label=IC50 recorded_value=45

P = Cc1nc(N)nc(N2CCC[C@H]2c2nc3cccc(F)c3c(=O)n2-c2ccccc2)c1C#N
Q = Cc1nc(N)nc(N2C[C@@H](O)C[C@H]2c2nc3cccc(C(F)(F)F)c3c(=O)n2N2CCOCC2)c1C#N
Request: Lab note: check whether P or Q shows the higher recorded IC50. // output: label of the selected item
Result: Q
(Q: 92 nM, P: 9 nM)
